The following compounds are listed with their measured Ki values.
Target: histidine tagged recombinant Human Lymphocyte-Specific Protein Tyrosine Kinase (Lck) (Homo sapiens, UniProt P06239)
Construct: histidine tag
Sequence (P06239 whole entry): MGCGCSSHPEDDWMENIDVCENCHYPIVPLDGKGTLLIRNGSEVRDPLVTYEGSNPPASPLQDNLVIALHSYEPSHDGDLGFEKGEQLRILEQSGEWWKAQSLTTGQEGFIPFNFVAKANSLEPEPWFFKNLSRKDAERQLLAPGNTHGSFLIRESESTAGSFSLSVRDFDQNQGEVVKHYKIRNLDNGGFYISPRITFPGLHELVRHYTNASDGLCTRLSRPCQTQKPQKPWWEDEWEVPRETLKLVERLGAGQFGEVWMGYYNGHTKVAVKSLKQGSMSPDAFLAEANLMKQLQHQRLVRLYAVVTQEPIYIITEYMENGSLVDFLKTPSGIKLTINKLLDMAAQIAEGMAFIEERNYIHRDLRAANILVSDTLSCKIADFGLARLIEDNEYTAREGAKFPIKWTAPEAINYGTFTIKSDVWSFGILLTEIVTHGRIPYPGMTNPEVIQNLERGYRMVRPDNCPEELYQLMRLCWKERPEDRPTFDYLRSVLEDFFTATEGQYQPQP
Test: Lck kinase inhibition assay (fluorescence polarization, KinEASE FP Fluorescein Green)
Assay type: biochemical
Settings: 10 μM ATP, 250 μM substrate, 60 minutes, room temperature; Ki from IC50 by Cheng-Prusoff

Reference set, count: 3
>  <Compound>
Nc1ncnc2c3c(n(-c4ccc(Oc5ccc(F)cc5)cc4)c12)CCC3 [Compound 2]

>  <Observation Type>
Ki

>  <Result>
> 1000 nM

$$$$
>  <Compound>
CCOc1cccc(Oc2ccc(-n3c4c(c5ncnc(N)c53)C(C)OC4)cc2)c1 (stereo not shown) [Compound 41]

>  <Observation Type>
Ki

>  <Result>
< 100 nM

$$$$
>  <Compound>
CC1OCc2c1c1ncnc(N)c1n2-c1ccc(Oc2cccc(C#N)c2)cc1 (stereo not shown) [Compound 37]

>  <Observation Type>
Ki

>  <Result>
> 1000 nM

$$$$

Let's switch to this compound now.
**Query** Tell me the measured Ki of CC1OCc2c1c1ncnc(N)c1n2-c1ccc(Oc2ccccc2C(F)(F)F)cc1 (stereo not shown) [Compound 32] , please.
**Result** < 1000 nM

Ref: patent US9624239B2
